Just for reference, PubChem BioAssay AID1159580 is where these values come from.

# testProtocol: chemical genetic growth profiling, strain panel (AID 1159580);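 also: tested at 20 µM; growth read once vehicle control cultures reached saturation at 30 °C; 1 = growth at the plate median or of vehicle wells; lower values mean less growth of the strain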
# protocolConditions: S. cerevisiae deletion strains, growth OD, locus YLR384C, strain iki3, active compounds read low
Screen size: about 5,500 compounds; about 2,000 (36%) were called active. About 18% were inconclusive and are not listed. This is one part of the list.
readoutName: normalized growth
Write no unit; give the number alone.

compound=CN(C)C(=O)C(CCN1CCC(O)(c2ccc(Cl)cc2)CC1)(c1ccccc1)c1ccccc1 readoutname="normalized growth" valueobserved=0.996
compound=COc1ccc(-c2cc(=O)c3c(O)c(OC)c(OC)c(OC)c3o2)cc1OC readoutname="normalized growth" valueobserved=0.974

Then there is this compound:
Data request, read-out normalized growth, for NC[C@H]1O[C@H](OC2[C@@H](N)C[C@@H](N)[C@H](O[C@H]3O[C@H](CO)[C@@H](O)[C@H](N)[C@H]3O)[C@H]2O)[C@H](O)[C@@H](O)[C@@H]1O (stereo partly drawn)
0.994

---

# testProtocol: chemical genetic growth profiling, strain panel (AID 1159580);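 also: tested at 20 µM; growth read once vehicle control cultures reached saturation at 30 °C; 1 = growth at the plate median or of vehicle wells; lower values mean less growth of the strain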
# protocolConditions: S. cerevisiae deletion strains, growth OD, locus YDR159W, strain sac3, active compounds read low
The campaign covered roughly 5,500 compounds. About 2,000 (36%) were called active. Inconclusive results (about 18%) are left out. This is one part of the list.
Recorded normalized growth by entry
Write no unit; give the number alone.

molecule="C[C@@H]1CC[C@@]23CCC4(C)[C@@](C=CC5[C@@]6(C)CCC(=O)C(C)(C)C6CC[C@]54C)(OC2=O)C3[C@H]1C (stereo partly drawn)" valueobserved=1

Data request, read-out normalized growth, for C/C=C/CC(C)C(O)C1C(=O)NC(CC)C(=O)N(C)CC(=O)N(C)C(CC(C)C)C(=O)NC(C(C)C)C(=O)N(C)C(CC(C)C)C(=O)NC(C)C(=O)NC(C)C(=O)N(C)C(CC(C)C)C(=O)N(C)C(CC(C)C)C(=O)N(C)C(C(C)C)C(=O)N1C (stereo not drawn)
0.993

Data request, read-out normalized growth, for O=S(=O)(O)O
0.985

---

# testProtocol: chemical genetic growth profiling, strain panel (AID 1159580);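 also: tested at 20 µM; growth read once vehicle control cultures reached saturation at 30 °C; 1 = growth at the plate median or of vehicle wells; lower values mean less growth of the strain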
# protocolConditions: S. cerevisiae deletion strains, growth OD, locus YNL233W, strain BNI4
The campaign covered roughly 5,500 compounds. About 2,000 (36%) were called active. Another 18% or so got no clear call; they are omitted. Rule as the data show it: active = normalized growth mostly below about 0.91 (no sharp cut-off); inconclusive = no clear call, values can overlap the other calls; inactive = mostly above about 0.92. The list shows a part of the results.
Respond only with the outcome that fits, drawn from active, inactive

compound=COc1c(O)cc2c(c1O)[C@H]1O[C@H](CO)[C@@H](O)[C@H](O)[C@@H]1OC2=O labelvalue=inactive

How was C[C@H]1O[C@@H](O[C@H]2[C@@H](O)C[C@H](O[C@H]3[C@@H](O)C[C@H](O[C@H]4CC[C@]5(C)C6C[C@@H](O)[C@]7(C)[C@@H](C8=CC(=O)OC8)CC[C@]7(O)C6CC[C@@H]5C4)O[C@@H]3C)O[C@@H]2C)C[C@H](O)[C@@H]1O (stereo partly drawn) classified in this test?
inactive

How was Cc1cc(N)c2ccccc2[n+]1CCCCCCCCCC[n+]1c(C)cc(N)c2ccccc21 classified in this test?
active

---

# testProtocol: chemical genetic growth profiling, strain panel (AID 1159580);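 also: tested at 20 µM; growth read once vehicle control cultures reached saturation at 30 °C; 1 = growth at the plate median or of vehicle wells; lower values mean less growth of the strain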
# protocolConditions: S. cerevisiae deletion strains, growth OD, locus YER110C, active compounds read low
The campaign covered roughly 5,500 compounds. About 2,000 (36%) were called active. About 18% were inconclusive and are not listed. Some of the results follow.
readoutName: normalized growth
Write no unit; give the number alone.

Field: example entries. Status: answers known.
compound=CC[C@@]1(O)C(=O)OCc2c1cc1n(c2=O)Cc2cc3cc(O)ccc3nc2-1 readoutname="normalized growth" valueobserved=0.991
compound="C[C@H]1OC(O[C@H]2[C@@H](O)CC(O[C@H]3[C@@H](O)C[C@H](O[C@H]4CC[C@]5(C)C6CC[C@]7(C)[C@@H](C8=CC(=O)OC8)[C@@H](O)C[C@]7(O)[C@@H]6CC[C@@H]5C4)O[C@@H]3C)O[C@@H]2C)C[C@H](O)C1O (stereo partly drawn)" readoutname="normalized growth" valueobserved=0.986

Then there is this compound:
Data request, read-out normalized growth, for CCOC(=O)CC(SP(=S)(OC)OC)C(=O)OCC (stereo not drawn)
1.01
